Listing of entries alongside the reported koff.
biological target: T1, full-length PcrV.6xhis (Pseudomonas aeruginosa); assay: SPR (Biacore T200), mAb captured via anti-human Fc, PcrV injected, 25 C
T1 construct: Recombinant full-length V-tip protein of the type 3 secretion system, His-tagged; also called full-length PcrV with a C-terminal hexahistidine tag

Request: Which koff value belongs to H1H29329P (antibody, V domains shown) VH: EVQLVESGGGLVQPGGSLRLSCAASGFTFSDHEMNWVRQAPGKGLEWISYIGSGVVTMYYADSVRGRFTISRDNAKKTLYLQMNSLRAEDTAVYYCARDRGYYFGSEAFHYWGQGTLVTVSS VL: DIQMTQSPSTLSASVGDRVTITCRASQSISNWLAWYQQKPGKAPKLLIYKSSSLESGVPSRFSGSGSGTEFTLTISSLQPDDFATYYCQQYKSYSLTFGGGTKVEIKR ?
Result: 0.00095 s⁻¹

Request: Query (binder): H1H29332P (antibody, V domains shown) VH: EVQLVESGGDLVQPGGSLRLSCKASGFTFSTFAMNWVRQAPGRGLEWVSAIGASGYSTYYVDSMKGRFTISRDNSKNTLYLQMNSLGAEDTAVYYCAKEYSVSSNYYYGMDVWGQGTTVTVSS VL: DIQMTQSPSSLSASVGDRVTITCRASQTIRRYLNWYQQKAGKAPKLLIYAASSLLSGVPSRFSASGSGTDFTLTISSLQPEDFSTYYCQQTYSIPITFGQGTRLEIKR ; field requested: koff
Result: 1.3e-05 s⁻¹

New cases:
Request: Given H1H29336P (antibody, V domains shown) VH: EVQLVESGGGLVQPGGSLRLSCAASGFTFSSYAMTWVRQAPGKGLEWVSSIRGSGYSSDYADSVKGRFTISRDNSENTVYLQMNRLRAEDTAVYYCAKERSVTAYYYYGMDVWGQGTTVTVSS VL: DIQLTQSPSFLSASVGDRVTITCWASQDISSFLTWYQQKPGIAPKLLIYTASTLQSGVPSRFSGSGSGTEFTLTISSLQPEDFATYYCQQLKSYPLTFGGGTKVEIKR , state its recorded koff.
Result: ≤ 1e-05 s⁻¹

This collection of values is drawn from patent US20260184768A1.
